Kindly state IC50 for each of the entries shown.
- System: BaF3
- experimentalProtocol: Antiproliferative activity against mouse BaF3 cells expressing rearranged during transfection kinase G810C-CCDC6 incubated for 74 to 76 hrs by cell counting kit 8 method

-- ask Which IC50 value is on record for `COc1cc2nccc(Oc3ccc(Nc4nn(C)cc4C(=O)Nc4ccccc4)cc3)c2cc1C(N)=O` ?
-- reply > 10 µM

-- ask Reported IC50, compound CO[C@]1(C(=O)N[C@@H](C)c2ccc(-n3cc(F)cn3)nc2)CC[C@H](c2nc(C)cc(Nc3cc(C)[nH]n3)n2)CC1 [PRALSETINIB] : ____
-- reply > 0.261 µM

-- ask Field request: IC50 | item: `COc1cc2nccc(Oc3ccc(Nc4nn(C)cc4C(=O)Nc4ccccc4F)cc3)c2cc1C(N)=O`
-- reply > 10 µM
